Data origin, for the record: patent US12662451B2

Tested on: SW48 human colorectal cancer cells (MSI-H cancer cells)
Test: SW48 cell viability, CellTiter-Glo, 120 hours (Example B)
Conditions: Homo sapiens, SW48, 120 h, read-out: SW48 pCC50, SW48 cell viability, 120 hours incubation (converted); Table 2
Structures can show the parent of a compound that is named as a salt.
Below, each entry is listed alongside its reported log10(CC50).
quantity-name: log10(CC50) (log10 of the value in µM)

{"columns": ["compound", "test-target", "log10(CC50)"],
 "data": [
  ["Cc1nc2cc(S(=O)(=O)N(C)c3ccc([C@H]4C[C@H](N5CC6(F)CC5C6)C[C@@H](C(=O)Nc5ccc(C(F)(F)F)cc5F)[C@@H]4C(=O)O)cc3)ccc2n1C (relative stereo)", "SW48 human colorectal cancer cells (MSI-H cancer cells)", 0.90],
  ["O=C(O)[C@@H]1[C@@H](c2ccc(-c3cncnc3)cc2)CCC[C@H]1C(=O)Nc1ccc(C(F)(F)F)cc1F", "SW48 human colorectal cancer cells (MSI-H cancer cells)", 1.00],
  ["CN1CCC[C@@H](c2cccc(S(=O)(=O)N(C)c3ccc([C@H]4CCC[C@@H](C(=O)Nc5ccc(C(F)(F)F)cc5F)[C@@H]4C(=O)O)cc3)c2)C1", "SW48 human colorectal cancer cells (MSI-H cancer cells)", -0.30],
  ["COC12CC(CO[C@@H]3C[C@H](c4ccc(N(C)S(=O)(=O)c5ccc6c(c5)nc(C)n6C)cc4)[C@@H](C(=O)O)[C@H](C(=O)Nc4ccc(C(F)(F)F)cc4F)C3)(C1)C2 (relative stereo)", "SW48 human colorectal cancer cells (MSI-H cancer cells)", -1.00],
  ["CCO[C@@H]1C[C@H](c2ccc(NS(=O)(=O)c3ccc4c(c3)nc(C)n4C)cc2)[C@@H](C(=O)O)[C@H](C(=O)Nc2ccc(C(F)(F)F)cc2F)C1", "SW48 human colorectal cancer cells (MSI-H cancer cells)", 0.00],
  ["CN(c1ccc([C@H]2CCC[C@@H](C(=O)Nc3ccc(C(F)(F)F)cc3F)[C@@H]2C(=O)O)cc1)S(=O)(=O)c1cccc([C@@H]2CCCNC2)c1", "SW48 human colorectal cancer cells (MSI-H cancer cells)", 0.00],
  ["Cc1nc2cc(S(=O)(=O)N(C)c3ccc([C@H]4CCC[C@@H](C(=O)Nc5ccc(C(F)(F)F)cc5F)[C@@H]4C(=O)O)cc3)cc(CCN)c2n1C [Example 289, hydrochloride]", "SW48 human colorectal cancer cells (MSI-H cancer cells)", 1.00],
  ["CN(c1ccc([C@H]2CCC[C@@H](C(=O)Nc3ccc(C(F)(F)F)cc3F)[C@@H]2C(=O)O)cc1)S(=O)(=O)c1ccc2occc2c1", "SW48 human colorectal cancer cells (MSI-H cancer cells)", 0.40],
  ["Cc1nc2cc(S(=O)(=O)N(C)c3ccc([C@H]4C[C@](C)(O)C[C@@H](C(=O)Nc5ccc(C(F)(F)F)cc5F)[C@@H]4C(=O)O)cc3)ccc2n1C (racemic)", "SW48 human colorectal cancer cells (MSI-H cancer cells)", 0.00],
  ["O=C(O)[C@@H]1[C@@H](c2ccc(-c3ccc(F)nc3)cc2)CCC[C@H]1C(=O)Nc1ccc(C(F)(F)F)cc1F", "SW48 human colorectal cancer cells (MSI-H cancer cells)", 0.70],
  ["Cc1nc2cc(S(=O)(=O)N(C)c3ccc([C@@H]4C[C@H](N5CC6(F)CC5C6)C[C@H](C(=O)Nc5ccc(C(F)(F)F)cc5F)[C@H]4C(=O)O)cc3)ccc2n1C (relative stereo)", "SW48 human colorectal cancer cells (MSI-H cancer cells)", -0.50],
  ["Cc1nc2cc(S(=O)(=O)N(C)c3ccc([C@H]4C[C@H](N5CCC(F)(F)C5)C[C@@H](C(=O)Nc5ccc(C(F)(F)F)cc5F)[C@@H]4C(=O)O)cc3)ccc2n1C (stereo in doubt)", "SW48 human colorectal cancer cells (MSI-H cancer cells)", 1.10],
  ["Cc1nc2cc(S(=O)(=O)N(C)c3ccc([C@H]4C[C@@H](N(C)C)C[C@@H](C(=O)Nc5ccc(C(F)(F)F)cc5F)[C@@H]4C(=O)O)cc3)ccc2n1C (stereo in doubt)", "SW48 human colorectal cancer cells (MSI-H cancer cells)", -0.30],
  ["Cc1nc2cc(S(=O)(=O)N(C)c3ccc([C@H]4C[C@H](N5CCC[C@H](F)C5)C[C@@H](C(=O)Nc5ccc(C(F)(F)F)cc5F)[C@@H]4C(=O)O)cc3)ccc2n1C (stereo in doubt)", "SW48 human colorectal cancer cells (MSI-H cancer cells)", 1.00],
  ["Cc1nc2cc(S(=O)(=O)N(C)c3ccc([C@H]4CCC[C@@H](C(=O)Nc5ccc(C(F)(F)F)cc5F)[C@@H]4C(=O)O)cc3)cc([C@@H]3CCCNC3)c2n1C (single isomer, unassigned) [Example 268, hydrochloride]", "SW48 human colorectal cancer cells (MSI-H cancer cells)", 1.20],
  ["CN(C)CCc1nc2cc(S(=O)(=O)N(C)c3ccc([C@H]4CCC[C@@H](C(=O)Nc5ccc(C(F)(F)F)cc5F)[C@@H]4C(=O)O)cc3)ccc2n1C", "SW48 human colorectal cancer cells (MSI-H cancer cells)", -0.80],
  ["Cc1nc2cc(S(=O)(=O)N(C)c3ccc([C@@H]4C[C@H](N5CCOCC5)C[C@H](C(=O)Nc5ccc(C(F)(F)F)cc5F)[C@H]4C(=O)O)cc3)ccc2n1C (relative stereo)", "SW48 human colorectal cancer cells (MSI-H cancer cells)", 1.20],
  ["CCCO[C@@H]1C[C@H](c2ccc(N(C)S(=O)(=O)c3ccc4c(c3)nc(C)n4C)cc2)[C@@H](C(=O)O)[C@H](C(=O)Nc2ccc(C(F)(F)F)cc2F)C1 (stereo in doubt)", "SW48 human colorectal cancer cells (MSI-H cancer cells)", -0.30],
  ["C=C(F)C(=O)Nc1ccc([C@H]2CCC[C@@H](C(=O)Nc3ccc(C(F)(F)F)cc3F)[C@@H]2C(=O)O)cc1 (racemic)", "SW48 human colorectal cancer cells (MSI-H cancer cells)", 1.20],
  ["Cc1nc2cc(S(=O)(=O)N(C)c3ccc([C@H]4C[C@H](N5CCC(F)(F)CC5)C[C@@H](C(=O)Nc5ccc(C(F)(F)F)cc5F)[C@@H]4C(=O)O)cc3)ccc2n1C (relative stereo)", "SW48 human colorectal cancer cells (MSI-H cancer cells)", 0.80]
]}

###

Tested on: SW48 human colorectal cancer cells
Test: Calculated free drug potency in SW48 cell assay, corrected with media free fraction (Example C)
Format: cell-based
Conditions: Homo sapiens, SW48, SW48 pCC50 corrected with measured free fraction in cell assay media

{"columns": ["compound", "CC50 (nM)"],
 "data": [
  ["Cc1nc2cc(S(=O)(=O)N(C)c3ccc([C@H]4C[C@@H](N)C[C@@H](C(=O)Nc5ccc(C(F)(F)F)cc5F)[C@@H]4C(=O)O)cc3)ccc2n1C (stereo in doubt) [Example 301]", 1620],
  ["Cc1nc2cc(S(=O)(=O)N(C)c3ccc([C@H]4CCC[C@@H](C(=O)Nc5ccc(C(F)(F)F)cc5F)[C@@H]4C(=O)O)cc3F)ccc2n1C (single isomer, unassigned) [Example 368]", 102],
  ["CCO[C@H]1C[C@@H](COc2ccc(C(F)(F)F)cc2)[C@H](C(=O)O)[C@@H](c2ccc(N(C)S(=O)(=O)c3ccc4c(c3)nc(C)n4C)cc2)C1 (single isomer, unassigned) [Example 221]", 81.3]
]}

###

Each entry below lists one item and its recorded CC50 value.
System: SW48 human colorectal cancer cells (MSI-H cancer cells)
Experiment: SW48 cell viability, CellTiter-Glo, 120 hours (Example B)
Conditions: Homo sapiens, SW48, 120 h, read-out: SW48 pCC50, SW48 cell viability, 120 hours incubation (converted); Table 2
Counter-ions that a name gives are not always drawn.
quantity-name: CC50 (µM)

{"columns": ["compound", "test-target", "readout-value"],
 "data": [
  ["COc1cccc(S(=O)(=O)N(C)c2ccc([C@H]3CCC[C@@H](C(=O)Nc4ccc(C(F)(F)F)cc4F)[C@@H]3C(=O)O)cc2)c1 (racemic) [Example 82]", "SW48 human colorectal cancer cells (MSI-H cancer cells)", 5.01],
  ["Cc1nc2cc(S(=O)(=O)N(C)c3ccc([C@H]4C[C@@H](OC(F)F)C[C@@H](C(=O)Nc5ccc(C(F)(F)F)cc5F)[C@@H]4C(=O)O)cc3)ccc2n1C (stereo in doubt) [Example 284]", "SW48 human colorectal cancer cells (MSI-H cancer cells)", 0.2],
  ["Cc1nc2cc(S(=O)(=O)N(C)c3ccc([C@H]4CCC[C@@H](C(=O)Nc5ccc(C(F)(F)F)cc5F)[C@@H]4C(=O)O)cc3)cc([C@H]3CCCNC3)c2n1C (relative stereo) [Example 269, hydrochloride]", "SW48 human colorectal cancer cells (MSI-H cancer cells)", 2.51],
  ["CN(c1ccc([C@H]2CCC[C@@H](C(=O)Nc3ccc(C(F)(F)F)cc3F)[C@@H]2C(=O)O)cc1)S(=O)(=O)c1ccc2oc(=O)n(C)c2c1 [Example 100]", "SW48 human colorectal cancer cells (MSI-H cancer cells)", 3.98],
  ["O=C(O)[C@@H]1[C@@H](c2ccc(-c3cccc4c3COC4)cc2)CCC[C@H]1C(=O)Nc1ccc(C(F)(F)F)cc1F [Example 15]", "SW48 human colorectal cancer cells (MSI-H cancer cells)", 20],
  ["CN(c1ccc([C@H]2CCC[C@@H](C(=O)Nc3ccc(C(F)(F)F)cc3F)[C@@H]2C(=O)O)cc1)S(=O)(=O)c1cccc(S(N)(=O)=O)c1 [Example 134]", "SW48 human colorectal cancer cells (MSI-H cancer cells)", 12.6],
  ["Cc1nc2cc(S(=O)(=O)N(C)c3ccc([C@H]4C[C@H](N5CC[C@H](F)C5)C[C@@H](C(=O)Nc5ccc(C(F)(F)F)cc5F)[C@@H]4C(=O)O)cc3)ccc2n1C (stereo in doubt) [Example 380]", "SW48 human colorectal cancer cells (MSI-H cancer cells)", 10],
  ["O=C(O)[C@@H]1[C@@H](c2ccc([C@H]3CCC(F)(F)C3)cc2)CCC[C@H]1C(=O)Nc1ccc(C(F)(F)F)cc1F (racemic) [Example 64]", "SW48 human colorectal cancer cells (MSI-H cancer cells)", 15.8],
  ["CCO[C@H]1C[C@@H](COc2ccc(C(F)(F)F)cc2)[C@H](C(=O)O)[C@@H](c2ccc(N(C)S(=O)(=O)c3ccc4c(c3)nc(C)n4C)cc2)C1 (single isomer, unassigned) [Example 221]", "SW48 human colorectal cancer cells (MSI-H cancer cells)", 2],
  ["Cc1nc2cc(S(=O)(=O)N(C)c3ccc([C@H]4CCC[C@@H](C(=O)Nc5ccc(C(F)F)cc5F)[C@@H]4C(=O)O)cc3)ccc2n1C [Example 179]", "SW48 human colorectal cancer cells (MSI-H cancer cells)", 1],
  ["CN(c1ccc([C@H]2CCC[C@@H](C(=O)Nc3ccc(C(F)(F)F)cc3F)[C@@H]2C(=O)O)cc1)S(=O)(=O)c1ccc(S(N)(=O)=O)cc1 [Example 133]", "SW48 human colorectal cancer cells (MSI-H cancer cells)", 12.6]
]}
